test: Liver microsomes stability, human; conditions: human, pooled liver microsomes
Record form. Attribute: half-life at 2 μM. Fill in for each entry.
One number for each entry, in h.

Worked examples, 3 compounds total:
Compound	half-life at 2 μM / h
CN(C)CCC1CNc2ccc(F)cc21 (stereo not shown)	15.4
COc1ccc2c(c1)C(CCN(C)C)CN2 (stereo not shown)	0.651
CN(C)CCC1CNc2ccccc21 (stereo not shown)	1.79

# next compound below
What measured half-life at 2 μM goes with [2H]C([2H])([2H])Oc1ccc2c(c1)C(CCN(C)C)CN2 (stereo not shown) ? 0.89

---

Record form. Attribute: Remaining Percentage. Fill in for each entry.
assay: Liver microsomes stability, mouse; conditions: mouse, With NADPH, 30 min
Numbers only, in %.

Worked examples, 4 compounds total:
Compound	Remaining Percentage (%)
CN(C)CCC1CNc2ccccc21 (centres unmarked)	57.37
COc1ccc2c(c1)C(CCN(C)C)CN2 (centres unmarked)	31.98
O=C(O)Cc1ccccc1Nc1c(Cl)cccc1Cl	51.50
[2H]C([2H])([2H])Oc1ccc2c(c1)C(CCN(C)C)CN2 (centres unmarked)	31.50

# next compound below
What measured Remaining Percentage goes with CN(C)CCC1CNc2ccc(F)cc21 (centres unmarked) ? 56.32

---

test: Liver microsomes stability, rat; conditions: rat, With NADPH, 60 min
Property: Remaining Percentage (%)
Answers are plain numbers, in %.

Worked examples, 4 molecules total:
Molecule	Unit Abbreviation	Remaining Percentage
O=C(O)Cc1ccccc1Nc1c(Cl)cccc1Cl [Diclofenac]	%	5.82
CN(C)CCC1CNc2ccccc21 (centres unmarked) [II-2]	%	10.29
COc1ccc2c(c1)C(CCN(C)C)CN2 (centres unmarked) [II-1]	%	5.99
CN(C)CCC1CNc2ccc(F)cc21 (centres unmarked) [Compound I-2]	%	3.66

# next molecule below
What measured Remaining Percentage goes with [2H]C([2H])([2H])Oc1ccc2c(c1)C(CCN(C)C)CN2 (centres unmarked) [Compound I-11] ? 6.59

---

experiment: Liver microsomes stability, human; conditions: human, Without NADPH, 60 min
Mark label 1 only for Remaining Percentage values smaller than 90%; exact matches and larger values are label 0.

Example entries and their recorded answers appear below.
Molecule	Assigned Label
CN(C)CCC1CNc2ccc(F)cc21 (centres unmarked)	label 0
CN(C)CCC1CNc2ccccc21 (centres unmarked)	label 1

Lab note: Remaining Percentage threshold 90%. Does this molecule come in strictly under it? COc1ccc2c(c1)C(CCN(C)C)CN2 (centres unmarked) label 1

---

Record form. Attribute: Remaining Percentage. Fill in for each entry.
test: Liver microsomes stability, rat; conditions: rat, With NADPH, 30 min

Compound	Remaining Percentage
CN(C)CCC1CNc2ccc(F)cc21 (stereo not drawn)	14.82%
O=C(O)Cc1ccccc1Nc1c(Cl)cccc1Cl	10.72%

What measured Remaining Percentage goes with [2H]C([2H])([2H])Oc1ccc2c(c1)C(CCN(C)C)CN2 (stereo not drawn) ? 22.43%

Entry source: patent US20250353827A1
